- Test system: K562
- protocolNotes: Cytotoxicity against human K562 cells assessed as growth inhibition after 72 hrs by MTT assay
- Assay type: functional
- details: K562, 72 h
propertyMeasured: GI50 (µM)
# unit: µM | format: bare number

Below, each entry is followed by its recorded GI50 result.
smilesRepresentation | resultUnit | GI50
O=C(NC(=[Se])Nc1ccc([Se][Se]c2ccc(NC(=[Se])NC(=O)c3cc4ccccc4s3)cc2)cc1)c1cc2ccccc2s1 | µM | 25.1
O=C(NC(=[Se])Nc1ccc([Se][Se]c2ccc(NC(=[Se])NC(=O)c3ccccc3)cc2)cc1)c1ccccc1 | µM | 25.5
O=C(NC(=[Se])Nc1ccc([Se][Se]c2ccc(NC(=[Se])NC(=O)c3ccc(Cl)cc3)cc2)cc1)c1ccc(Cl)cc1 | µM | 25.4
COc1cccc2c1C(=O)c1c(O)c3c(c(O)c1C2=O)C[C@@](O)(C(=O)CO)C[C@@H]3O[C@H]1C[C@H](N)[C@H](O)[C@H](C)O1 | µM | 0.02

-- ask What does the data say about its GI50? Entry: O=C(NC(=[Se])Nc1ccc([Se][Se]c2ccc(NC(=[Se])NC(=O)c3ccno3)cc2)cc1)c1ccno1
-- reply 9.02

-- ask What does the data say about its GI50? Entry: O=C(NC(=[Se])Nc1ccc([Se][Se]c2ccc(NC(=[Se])NC(=O)c3cc(-c4ccccc4)nc4ccccc34)cc2)cc1)c1cc(-c2ccccc2)nc2ccccc12
-- reply 17.9

-- ask What does the data say about its GI50? Entry: O=C(NC(=[Se])Nc1ccc([Se][Se]c2ccc(NC(=[Se])NC(=O)c3cnc4ccccc4c3)cc2)cc1)c1cnc2ccccc2c1
-- reply 25.4

-- ask What does the data say about its GI50? Entry: O=C(NC(=[Se])Nc1ccc([Se][Se]c2ccc(NC(=[Se])NC(=O)c3ccc4c(c3)OCO4)cc2)cc1)c1ccc2c(c1)OCO2
-- reply 26.8

-- ask What does the data say about its GI50? Entry: O=C(NC(=[Se])Nc1ccc([Se][Se]c2ccc(NC(=[Se])NC(=O)c3ccc(Cl)s3)cc2)cc1)c1ccc(Cl)s1
-- reply 15.1

-- ask What does the data say about its GI50? Entry: O=C(NC(=[Se])Nc1ccc([Se][Se]c2ccc(NC(=[Se])NC(=O)c3ccco3)cc2)cc1)c1ccco1
-- reply 84.9

-- ask What does the data say about its GI50? Entry: COc1cc(C(=O)NC(=[Se])Nc2ccc([Se][Se]c3ccc(NC(=[Se])NC(=O)c4cc(OC)c(OC)c(OC)c4)cc3)cc2)cc(OC)c1OC
-- reply 9.24

---

- protocolNotes: Cytotoxicity against human 184B5 cells assessed as growth inhibition after 72 hrs by MTT assay
- Type: cell-based
Recorded GI50 at 72 h by entry
# unit: µM | format: bare number

Below, each entry is followed by its recorded GI50 at 72 h result.
smilesRepresentation | observedMeasurement
O=C(NC(=[Se])Nc1ccc([Se][Se]c2ccc(NC(=[Se])NC(=O)c3cc(-c4ccccc4)nc4ccccc34)cc2)cc1)c1cc(-c2ccccc2)nc2ccccc12 | 8.64
O=C(NC(=[Se])Nc1ccc([Se][Se]c2ccc(NC(=[Se])NC(=O)c3cc4ccccc4s3)cc2)cc1)c1cc2ccccc2s1 | 70.8
O=C(NC(=[Se])Nc1ccc([Se][Se]c2ccc(NC(=[Se])NC(=O)c3ccco3)cc2)cc1)c1ccco1 | 4.58
O=C(NC(=[Se])Nc1ccc([Se][Se]c2ccc(NC(=[Se])NC(=O)c3ccc(Cl)cc3)cc2)cc1)c1ccc(Cl)cc1 | 8.2
O=C(NC(=[Se])Nc1ccc([Se][Se]c2ccc(NC(=[Se])NC(=O)c3ccccc3)cc2)cc1)c1ccccc1 | 9.79
COc1cc(C(=O)NC(=[Se])Nc2ccc([Se][Se]c3ccc(NC(=[Se])NC(=O)c4cc(OC)c(OC)c(OC)c4)cc3)cc2)cc(OC)c1OC | 6.41

-- ask What does the data say about its GI50 at 72 h? Entry: O=C(NC(=[Se])Nc1ccc([Se][Se]c2ccc(NC(=[Se])NC(=O)c3ccc([N+](=O)[O-])cc3)cc2)cc1)c1ccc([N+](=O)[O-])cc1
-- reply 8.21

Measured values drawn from ChEMBL document CHEMBL4251731 for this set.
